- System Tested: Mitogen-activated protein kinase 14 (Homo sapiens)
- Sequence (Q16539 whole entry): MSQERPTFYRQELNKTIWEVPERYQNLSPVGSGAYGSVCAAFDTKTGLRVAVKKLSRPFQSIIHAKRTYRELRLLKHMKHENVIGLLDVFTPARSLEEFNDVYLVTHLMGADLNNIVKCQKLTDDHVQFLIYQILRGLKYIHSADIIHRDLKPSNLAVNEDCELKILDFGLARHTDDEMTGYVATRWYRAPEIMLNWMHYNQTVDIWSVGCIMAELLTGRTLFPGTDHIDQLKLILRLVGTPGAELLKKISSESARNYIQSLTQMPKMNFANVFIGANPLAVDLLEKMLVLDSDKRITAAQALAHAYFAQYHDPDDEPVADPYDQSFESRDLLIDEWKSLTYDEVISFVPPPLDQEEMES
- Assay Overview: Inhibition of recombinant human p38alpha expressed in Escherichia coli assessed as residual activity at 10 uM (reference value: 100 +/- 0.1%)
Reported Endpoint: Activity (%)

See these solved cases before continuing.
Compound: Cc1cccc(-c2nn(CC(=O)Nc3cccc(C#N)c3)cc2-c2ccnc(-c3ccccc3)c2)n1
Activity, %: 24

Compound: Cc1cccc(-c2nn(CC(=S)Nc3cccc(F)c3)cc2-c2ccnc3ccccc23)n1
Activity, %: 3

Compound: Cc1cccc(-c2c(-c3ccnc4ccccc34)cnn2CC(=O)Nc2cccc(C#N)c2)n1
Activity, %: 51

Compound: Cc1cccc(-c2nn(CC(=S)Nc3cccc(C#N)c3)cc2-c2ccnc3ccccc23)n1
Activity, %: 3

[P] Cc1cccc(-c2c(-c3ccnc4ccccc34)cnn2CC(=O)Nc2ccccc2)n1
[Q] Cc1cccc(-c2c(-c3ccnc(-c4ccccc4)c3)cnn2CC(=O)Nc2cccc(C#N)c2)n1
Task: Between P and Q , whose recorded Activity is greater? Which one? Tell me its label.
Result: Q
